B1: KLHL20 (parent)
chain: YQDMIYAVGGRDDTTELSSAERYN

- Variants of: B1
- assay_info: protein stability index of a GFP-peptide fusion (GPS, HEK-293T) (PSI 1-6); higher = more stable;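 also: lentivirally expressed fusions sorted by FACS into six bins by GFP to DsRed ratio, PSI derived from sequencing read proportions per bin multiplied by bin number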
- protocol_conditions: c terminus: a fixed tail appended
measurement_name: protein stability index

construct_sequence	measurement
YQDMIYAVGGRDDTTENSSAERYN	2.38
YQDMIYAVGGRDDTTELSSAEWYN	2.56
YQDMIYAVGGRDATTELSSAERYN	1.66
YQDMIYAVGGRDDTTELSSAERYS	2.24
YQDMTYAVGGRDDTTELSSAERYN	3.17
YQDMIYAVGGRDDTTERSSAERYN	2.19
YQDMIYAVGGRDDTTELSSGERYN	2.29
YQDMIYAVGGCDDTTELSSAERYN	2.69
YQDMIYAVGGRDDTTMLSSAERYN	2.08
YQDMIYAVGGRDDTTELSSAERYQ	2.48
YQDMIYAVGGRDDTTELSSSERYN	1.98
YQDMIYAVGGHDDTTELSSAERYN	2.1
YQDMIYAKGGRDDTTELSSAERYN	2.44
YQDMIYAVGGRDDTTELSSAERYL	2.69
YQDMISAVGGRDDTTELSSAERYN	3.88
YQDMIYAVGGRDDTTHLSSAERYN	2.5
YQDMIYAVGGRDDTRELSSAERYN	2.08
YQDMIYAVGGRHDTTELSSAERYN	2.17
YQDMIYAVQGRDDTTELSSAERYN	2.27
YQDMIYAVGGRDDTTELSSAQRYN	1.95
YQDMIYAVGGRDDTTELTSAERYN	2.1
YTDMIYAVGGRDDTTELSSAERYN	2.22
YQDMIYAVGGRDDTTELSRAERYN	2.53
YQDMIYAVGGRMDTTELSSAERYN	1.76
YQDMIYAVGGRDDTTELSSALRYN	1.95
YQAMIYAVGGRDDTTELSSAERYN	1.7
YQDMICAVGGRDDTTELSSAERYN	2.71
YQDMIYAVGGRDDTTELSSAERYW	1.93
YQDMIYAVGGRDDTGELSSAERYN	2.21
YQDMIYAVGGRDDTTELSQAERYN	2.25
YQDMIYAVGGRDVTTELSSAERYN	2.49
YQDMIYAVGERDDTTELSSAERYN	2.92
YQDMIIAVGGRDDTTELSSAERYN	3.08
YQDMIYAVIGRDDTTELSSAERYN	1.51
YQDMIYAVGGRDDTTELSSPERYN	2.05
YQDMIYAVGGRPDTTELSSAERYN	2.34
YQDMIAAVGGRDDTTELSSAERYN	3.85
YQDMIYAVGGRDDTTELSAAERYN	2.87
YQDMIYAVGGRDDTTELSSAEMYN	2.03
YQDMIYAVGVRDDTTELSSAERYN	2.05
YQDMIYALGGRDDTTELSSAERYN	1.86
YQDMIYAVGGRDDTTELSDAERYN	2.43
YQDMIYAVGGRDDTTCLSSAERYN	1.5
YEDMIYAVGGRDDTTELSSAERYN	5.02
YQDMIYAVGGRDDTTETSSAERYN	2.89
YQDMIYAVGGRDFTTELSSAERYN	2.08
